Measured log10(MIC) of individual entries
Tested on: Bacillus subtilis
experiment-notes: Antibacterial activity against Bacillus subtilis CMCC 63501 measured after 24 hrs by ELISA
Format: functional
conditions: CMCC 63501, 24 h
quantity: log10(MIC) (log10 of the value in µM)

{"columns": ["compound", "log10(MIC)"],
 "data": [
  ["C/C(=N/NC(=N)N)c1cn(S(=O)(=O)c2ccccc2)c2ccccc12", 1.35],
  ["N=C(N)N/N=C\\c1cn(S(=O)(=O)c2ccccc2)c2ccccc12", 1.07],
  ["C/C(=N/NC(N)=S)c1cn(S(=O)(=O)c2ccc(C)cc2)c2ccccc12", 2.22],
  ["Cc1ccc(S(=O)(=O)n2cc(/C=N\\NC(=N)N)c3ccccc32)cc1", 0.75],
  ["C/C(=N/NC(N)=S)c1cn(S(=O)(=O)c2ccccc2)c2ccc(Br)cc12", 2.45],
  ["CC/C(=N/NC(N)=O)c1cn(S(=O)(=O)c2ccc(C)cc2)c2ccccc12", 2.52],
  ["CC/C(=N/NC(=N)N)c1cn(S(=O)(=O)c2ccc(C)cc2)c2ccc(Br)cc12", 0.34]
]}

====

experiment-notes: Selectivity index, ratio of IC50 for HEK293T cells to MIC for Escherichia coli CMCC 44568
Type: toxicity
conditions: human, read-out: Selectivity Index

{"columns": ["compound", "selectivity ratio"],
 "data": [
  ["C/C(=N/NC(=N)N)c1cn(S(=O)(=O)c2ccc(C)cc2)c2ccccc12", 4.89],
  ["C/C(=N/NC(=N)N)c1cn(S(=O)(=O)c2ccc(C)cc2)c2ccc(Br)cc12", 50.4],
  ["CC/C(=N/NC(=N)N)c1cn(S(=O)(=O)c2ccc(C)cc2)c2ccc(Br)cc12", 13.3],
  ["Cc1ccc(S(=O)(=O)n2cc(/C=N\\NC(=N)N)c3cc(Br)ccc32)cc1", 31.8],
  ["Cc1ccc(S(=O)(=O)n2cc(/C=N\\NC(=N)N)c3ccccc32)cc1", 7.68],
  ["N=C(N)N/N=C\\c1cn(S(=O)(=O)c2ccccc2)c2ccc(Br)cc12", 60.2]
]}

====

Documented MIC across a set of compounds
System: Bacillus subtilis
experiment-notes: Antibacterial activity against Bacillus subtilis CMCC 63501 measured after 24 hrs by ELISA
Assay type: functional
conditions: CMCC 63501, 24 h

{"columns": ["compound", "MIC"],
 "data": [
  ["C/C(=N/NC(N)=S)c1cn(S(=O)(=O)c2ccc(C)cc2)c2ccc(Br)cc12", "> 276 µM"],
  ["NC(=S)N/N=C\\c1cn(S(=O)(=O)c2ccccc2)c2ccc(Br)cc12", "> 294 µM"],
  ["Cc1ccc(S(=O)(=O)n2cc(/C=N\\NC(N)=S)c3ccccc32)cc1", "> 343 µM"],
  ["CC/C(=N/NC(N)=S)c1cn(S(=O)(=O)c2ccc(C)cc2)c2ccccc12", "> 320 µM"]
]}

====

Tested on: Enterococcus faecalis
experiment-notes: Antibacterial activity against Enterococcus faecalis CMCC 29212 measured after 24 hrs by ELISA
Assay type: functional
conditions: CMCC 29212, 24 h
quantity: MIC (µM)

{"columns": ["compound", "tested-target", "relation-symbol", "result-number"],
 "data": [
  ["CCn1cc(C(=O)O)c(=O)c2cc(F)c(N3CCNCC3)cc21 [NORFLOXACIN]", "Enterococcus faecalis", "=", 3.13],
  ["C/C(=N/NC(N)=O)c1cn(S(=O)(=O)c2ccccc2)c2ccccc12", "Enterococcus faecalis", ">", 360],
  ["C/C(=N/NC(N)=O)c1cn(S(=O)(=O)c2ccc(C)cc2)c2ccccc12", "Enterococcus faecalis", ">", 346],
  ["Cc1onc(-c2ccccc2)c1C(=O)N[C@@H]1C(=O)N2[C@@H]1SC(C)(C)[C@@H]2C(=O)O [OXACILLIN]", "Enterococcus faecalis", "=", 319],
  ["CC1(C)S[C@@H]2[C@H](NC(=O)Cc3ccccc3)C(=O)N2[C@H]1C(=O)O [PENICILLIN G]", "Enterococcus faecalis", "=", 383],
  ["Cc1ccc(S(=O)(=O)n2cc(/C=N\\NC(=N)N)c3ccccc32)cc1", "Enterococcus faecalis", "=", 45.1],
  ["C/C(=N/NC(N)=S)c1cn(S(=O)(=O)c2ccccc2)c2ccc(Br)cc12", "Enterococcus faecalis", ">", 284],
  ["N=C(N)N/N=C\\c1cn(S(=O)(=O)c2ccccc2)c2ccc(Br)cc12", "Enterococcus faecalis", "=", 19.1],
  ["CC/C(=N/NC(N)=O)c1cn(S(=O)(=O)c2ccc(C)cc2)c2ccccc12", "Enterococcus faecalis", ">", 333],
  ["C/C(=N/NC(=N)N)c1cn(S(=O)(=O)c2ccc(C)cc2)c2ccc(Br)cc12", "Enterococcus faecalis", "=", 8.94],
  ["NC(=O)N/N=C\\c1cn(S(=O)(=O)c2ccccc2)c2ccc(Br)cc12", "Enterococcus faecalis", ">", 305],
  ["C/C(=N/NC(N)=O)c1cn(S(=O)(=O)c2ccc(C)cc2)c2ccc(Br)cc12", "Enterococcus faecalis", ">", 286],
  ["CC/C(=N/NC(=N)N)c1cn(S(=O)(=O)c2ccc(C)cc2)c2ccc(Br)cc12", "Enterococcus faecalis", "=", 4.34],
  ["COc1c(N2CCNC(C)C2)c(F)cc2c(=O)c(C(=O)O)cn(C3CC3)c12 (stereo not given) [GATIFLOXACIN]", "Enterococcus faecalis", "=", 2.67],
  ["CC/C(=N/NC(N)=O)c1cn(S(=O)(=O)c2ccccc2)c2ccc(Br)cc12", "Enterococcus faecalis", ">", 286]
]}

====

System: Pseudomonas aeruginosa
experiment-notes: Antibacterial activity against Pseudomonas aeruginosa CMCC 10104 measured after 24 hrs by ELISA
Format: functional
conditions: CMCC 10104, 24 h

{"columns": ["molecule", "MIC"],
 "data": [
  ["C/C(=N/NC(=N)N)c1cn(S(=O)(=O)c2ccccc2)c2ccc(Br)cc12", "> 296 µM"],
  ["CC/C(=N/NC(N)=S)c1cn(S(=O)(=O)c2ccc(C)cc2)c2ccc(Br)cc12", "> 268 µM"],
  ["Cc1ccc(S(=O)(=O)n2cc(/C=N\\NC(N)=O)c3cc(Br)ccc32)cc1", "> 295 µM"],
  ["Cc1ccc(S(=O)(=O)n2cc(/C=N\\NC(=N)N)c3cc(Br)ccc32)cc1", "> 296 µM"],
  ["CC/C(=N/NC(=N)N)c1cn(S(=O)(=O)c2ccccc2)c2ccc(Br)cc12", "> 286 µM"],
  ["CC/C(=N/NC(N)=S)c1cn(S(=O)(=O)c2ccccc2)c2ccc(Br)cc12", "> 276 µM"],
  ["NC(=S)N/N=C\\c1cn(S(=O)(=O)c2ccccc2)c2ccc(Br)cc12", "> 294 µM"],
  ["Cc1ccc(S(=O)(=O)n2cc(/C=N\\NC(N)=O)c3ccccc32)cc1", "> 360 µM"],
  ["C/C(=N/NC(N)=O)c1cn(S(=O)(=O)c2ccccc2)c2ccccc12", "> 360 µM"],
  ["C/C(=N/NC(N)=S)c1cn(S(=O)(=O)c2ccccc2)c2ccccc12", "> 344 µM"],
  ["COc1c(N2CCNC(C)C2)c(F)cc2c(=O)c(C(=O)O)cn(C3CC3)c12 (stereo not given) [GATIFLOXACIN]", "5.33 µM"],
  ["N=C(N)N/N=C\\c1cn(S(=O)(=O)c2ccccc2)c2ccccc12", "23.5 µM"],
  ["C/C(=N/NC(N)=S)c1cn(S(=O)(=O)c2ccc(C)cc2)c2ccc(Br)cc12", "> 276 µM"],
  ["C/C(=N/NC(N)=O)c1cn(S(=O)(=O)c2ccc(C)cc2)c2ccccc12", "> 346 µM"],
  ["COc1c(N2C[C@@H]3CCCN[C@@H]3C2)c(F)cc2c(=O)c(C(=O)O)cn(C3CC3)c12 [MOXIFLOXACIN]", "9.98 µM"]
]}

====

System: Enterococcus faecalis
experiment-notes: Antibacterial activity against Enterococcus faecalis CMCC 29212 measured after 24 hrs by ELISA
Format: functional
conditions: CMCC 29212, 24 h
MIC reference

{"columns": ["compound", "MIC"],
 "data": [
  ["CC/C(=N/NC(N)=O)c1cn(S(=O)(=O)c2ccc(C)cc2)c2ccc(Br)cc12", "> 277 µM"],
  ["C/C(=N/NC(N)=S)c1cn(S(=O)(=O)c2ccc(C)cc2)c2ccc(Br)cc12", "> 276 µM"],
  ["Cc1ccc(S(=O)(=O)n2cc(/C=N\\NC(N)=S)c3cc(Br)ccc32)cc1", "> 284 µM"],
  ["C/C(=N/NC(=N)N)c1cn(S(=O)(=O)c2ccc(C)cc2)c2ccccc12", "43.4 µM"],
  ["Cc1ccc(S(=O)(=O)n2cc(/C=N\\NC(N)=S)c3ccccc32)cc1", "> 343 µM"],
  ["NC(=S)N/N=C\\c1cn(S(=O)(=O)c2ccccc2)c2ccc(Br)cc12", "> 294 µM"],
  ["CC/C(=N/NC(N)=O)c1cn(S(=O)(=O)c2ccccc2)c2ccccc12", "> 346 µM"],
  ["C/C(=N/NC(N)=S)c1cn(S(=O)(=O)c2ccccc2)c2ccccc12", "> 344 µM"]
]}
